Data credit: patent US8952024B2

system: wild oat (Avena fatua); assay: Test B pre-/postemergence plant response; format: in vivo; details: Preemergence, 62 g ai/ha; scale 0 to 100, 0 no effect, 100 complete control
measurement.type: Plant response rating, Oat, Wild

* CCCCn1c(C2CC2)ncc(C(=O)C2=C(O)CCCC2=O)c1=O [Compound 193] | 5
* COCCCn1c(-c2cc(F)cc(F)c2)ncc(C(=O)C2=C(O)C3CCC(C3)C2=O)c1=O (stereo not drawn) [Compound 244] | 5
* CC(C)Cc1ncc(C(=O)C2=C(O)CCCC2=O)c(=O)n1-c1ccccc1 [Compound 68] | 0
* O=C1CCCC(O)=C1C(=O)c1cnc(-c2cccc(Br)c2)n(-c2ccccc2)c1=O [Compound 69] | 0
* Cc1cccc(-n2c(-c3ccccc3)ncc(C(=O)C3=C(O)CCCC3=O)c2=O)c1C [Compound 27] | 0
* Cc1ccc(Cl)cc1-n1c(-c2ccccc2)ncc(C(=O)C2=C(O)CCCC2=O)c1=O [Compound 52] | 5
